Molecular target: pooled human IgG (human IgG1, 2, 3 and 4)
measured metric: Enzyme Activity Endpoint Assay: Fc (ng/µL)
Express the result in ng/µL but write the number alone.

{"protein": "PRT-662 (protein) MQITSVWTKGVTPLTPEQFRYNNEDVFHAPYLAHQGWYDITKAFDGKDNLLCGAATAGNMLHWWFDQNKTEIEAYLSKHPEKQKIIFNNQELFDLRAAINTKDSQTNSQLFNYFRDKAFPNLSARQLGVMPDLVLDMFINGYYLNVFKTQSTDVNRPYQDKDKRGGIFDAVFTRGDQTTLLTARHDLKNKGLNDISTLIKQELTEGRALALSHTYANVSISHVINLWGADFNAEGNLEAIYVTDSDANASIGMKKYFVGINASGHVAISAKKIEGENIGAQVLGLFTLSSGKDIWQKLSLEHHHHHH", "unit text": "ng/µL", "val": 13}

// below: Enzyme Activity Endpoint Assay: Fc requested for another protein
For the protein PRT-541 (protein) MANQEIRYSKNENPNVTIKWVHGIGEPTQAEKEKIEFWWYETTTTKFFNNRKVDHLGDGNQCWAKTDSNMLHWWFVQNEENINQYIAKKNITGKINFNGEQMFDVKEGIDDNQEKEKSYIANTFRTKKAHNLSTKHKGDYIINGLSWYLYGLNNFKIAHGPTPVKKKPKFYGPALFKDVFSRGDGNTPIIVETDFKEYTKKEFEDTLSAALDSKKAIGINIYGSNVDYQHAITLWGAAFDEEENIIAIYVVDNNFKFENRIFPYGIWYQKEGRPYLFNYEINSFVKNRYVGEVTTLDKGEAQWQETNLEHHHHHH , give its reported Enzyme Activity Endpoint Assay: Fc. 0
